system: ATP; assay: switch fluorescence ratio, 500 uM ATP over buffer (Cy3 cluster intensity, sum of 5 cycles each) (fold (ratio)); higher = stronger signal-on switching upon ATP binding; sequences stand for … in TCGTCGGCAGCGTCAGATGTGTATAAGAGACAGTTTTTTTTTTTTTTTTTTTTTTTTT…TC; conditions: aptamer strand: ATP DNA aptamer (quencher-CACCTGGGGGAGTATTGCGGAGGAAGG + anchor), 100 nM annealed; ATP concentration: 500 uM;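 also: ATP exposure 15 min at 22 °C before imaging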
Please use Criterion met whenever switch fluorescence ratio is not below 1, and Criterion not met whenever it is.

Below, 6 sequences whose answers are already recorded.
sequence_chain: TGGGACTGTA
assigned_class: Criterion met
--
sequence_chain: GACGGGTATA
assigned_class: Criterion met
--
sequence_chain: GAAGGGATGC
assigned_class: Criterion met
--
sequence_chain: GAACGAAGCA
assigned_class: Criterion met
--
sequence_chain: GACAAAAAAA
assigned_class: Criterion met
--
sequence_chain: AAGAGCCATC
assigned_class: Criterion not met

Task item: Hi team, for `TCGTAATGGT` , is the recorded switch fluorescence ratio at or above 1?
Reply: Criterion met

Task item: Hi team, for `GCGATGGCTG` , is the recorded switch fluorescence ratio at or above 1?
Reply: Criterion not met
